Assign pIC50 to each entry below.
Molecular target: mouse VISTA (mVISTA) (Mus musculus, UniProt Q9D659)
Construct: expressed in transfected cells; host or cells: Human embryonic kidney 293T cells
Sequence (Q9D659 33-308): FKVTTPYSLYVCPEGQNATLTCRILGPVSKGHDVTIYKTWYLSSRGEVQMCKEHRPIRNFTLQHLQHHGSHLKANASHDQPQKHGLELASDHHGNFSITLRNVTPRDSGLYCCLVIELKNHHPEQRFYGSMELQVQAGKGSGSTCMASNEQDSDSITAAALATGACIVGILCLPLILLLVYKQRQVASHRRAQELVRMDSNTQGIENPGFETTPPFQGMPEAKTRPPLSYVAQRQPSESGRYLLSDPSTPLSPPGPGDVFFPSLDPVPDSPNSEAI
Experiment: Cell-Based Binding High-Content Assay For mVISTA (HC CBA mVISTA)
Details: read-out: HC CBA mVISTA IC50
Positions of bridges follow the written chain, without caps; N, C: chain ends. Non-standard residues stand in square brackets, D forms with d. Residues, ends and D or L forms follow the SMILES beside them. NMeW = CN[C@@H](Cc1c[nH]c2ccccc12)C(=O)O; Phe(3-Cl) = N[C@@H](Cc1cccc(Cl)c1)C(=O)O; Phe(2-Me) = Cc1ccccc1C[C@H](N)C(=O)O; Ahp(2) = CCCCC[C@H](N)C(=O)O; NMeNle = CCCC[C@H](NC)C(=O)O; Tle = CC(C)(C)[C@H](N)C(=O)O; NHexGly = CCCCCCNCC(=O)O; Nle = CCCC[C@H](N)C(=O)O
One number for each entry, as −log10 of the molar value.

Below, 3 molecules whose answers are already recorded.
molecule: CCCCCCN1CC(=O)N[C@@H](Cc2ccc(O)cc2)C(=O)N[C@@H](CCCC)C(=O)N[C@@H](CC(=O)O)C(=O)N[C@@H](CCCNC(=N)N)C(=O)N[C@@H](CC(C)C)C(=O)N[C@@H](CCCCC)C(=O)N2CCC[C@H]2C(=O)N[C@@H](C(C)C)C(=O)N2CCC[C@H]2C(=O)N[C@H](C(=O)NCC(=O)O)CSCC(=O)N[C@@H](Cc2ccccc2)C(=O)N[C@@H](Cc2ccc(O)cc2)C(=O)N[C@@H](CC(=O)O)C1=O [compound 1118] ({CH2CO}-FYD[NHexGly]Y[Nle]DRL[Ahp(2)]PVPCG-OH; thioether N-14)
pIC50: 7.52

molecule: CCCCCCN1CC(=O)N[C@@H](Cc2ccc(O)cc2)C(=O)N[C@@H](CC(C)C)C(=O)N[C@@H](CC(N)=O)C(=O)N[C@@H](CCCNC(=N)N)C(=O)N(C)[C@@H](CCCC)C(=O)N[C@@H](CCCCC)C(=O)N2CCC[C@H]2C(=O)N[C@@H](C(C)(C)C)C(=O)N[C@@H](CO)C(=O)N[C@H](C(=O)NCC(N)=O)CSCC(=O)N[C@@H](Cc2ccccc2C)C(=O)N[C@@H](Cc2ccc(O)cc2)C(=O)N[C@@H](CC(=O)O)C1=O [compound 1205] ({CH2CO}-[Phe(2-Me)]YD[NHexGly]YLNR[NMeNle][Ahp(2)]P[Tle]SCG-NH2; thioether N-14)
pIC50: 7.79

molecule: CCCCCCN1CC(=O)N[C@@H](Cc2ccc(O)cc2)C(=O)N[C@@H](CC(C)C)C(=O)N[C@@H](CC(N)=O)C(=O)N[C@@H](CCCNC(=N)N)C(=O)N(C)[C@@H](CCCC)C(=O)N[C@@H](CCCCC)C(=O)N2CCC[C@H]2C(=O)N[C@@H](C(C)(C)C)C(=O)N[C@@H](CO)C(=O)N[C@H](C(=O)NCC(N)=O)CSCC(=O)N[C@@H](Cc2cccc(Cl)c2)C(=O)N[C@@H](Cc2ccc(O)cc2)C(=O)N[C@@H](CC(=O)O)C1=O [compound 1209] ({CH2CO}-[Phe(3-Cl)]YD[NHexGly]YLNR[NMeNle][Ahp(2)]P[Tle]SCG-NH2; thioether N-14)
pIC50: 7.48

Req: I'd like to know its pIC50. The molecule in question is CCCCCCN1CC(=O)N[C@@H](Cc2ccc(O)cc2)C(=O)N[C@@H](CCCC)C(=O)N[C@@H](CC(N)=O)C(=O)N[C@@H](CCCNC(=N)N)C(=O)N(C)[C@@H](Cc2c[nH]c3ccccc23)C(=O)N[C@@H](CCCCC)C(=O)N2CCC[C@H]2C(=O)N[C@@H](C(C)C)C(=O)N[C@@H](CC(=O)O)C(=O)N[C@H](C(=O)NCC(=O)O)CSCC(=O)N[C@@H](Cc2ccccc2)C(=O)N[C@@H](Cc2c[nH]c3ccccc23)C(=O)N[C@@H](CC(=O)O)C1=O [Example 1410] ({CH2CO}-FWD[NHexGly]Y[Nle]NR[NMeW][Ahp(2)]PVDCG-OH; thioether N-14)
Resp: 8.28

Data provenance is patent US20240218022A1.
